B1: LINE1-full (parent)
chain: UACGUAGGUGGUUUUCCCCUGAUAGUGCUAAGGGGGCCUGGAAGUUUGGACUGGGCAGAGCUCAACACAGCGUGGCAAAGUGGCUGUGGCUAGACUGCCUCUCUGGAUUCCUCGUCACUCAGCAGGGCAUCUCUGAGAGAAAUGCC

Variants of: B1
Assay info: self-cleavage, relative activity (ratio to wild type); higher = more cleavage; in vitro, sequencing; the parent is a self-cleaving ribozyme
Decide using self-cleavage: a value greater than or equal to 1 is true (1), a smaller one is false (0).

{"Polymer sequence": "UACGUAGGUGGUUUUCCCCUGAUAGUGCUAAGGGGGCCUGGAAGUUUGGACUGGGCAGAGCUCGACACAGCGUGGCAAAGUGGCUGUGGCUAGACUGCCUCUCUGGAUUCCUCGACACUCAGCAGGGCAUCUCUGAGAGAAAUGCC [A64G U115A]", "Category label": "false (0)"}
{"Polymer sequence": "UACGUAGGUGGUUUUCCCCCGAUAGUGCUAAGGGGCCCUGGAAGUUUGGACUGGGCAGAGCUCAACACAGCGUGGCAAAGUGGCUGUGGCUAGACUGCCUCUCUGGAUUCCUCGUCACUCAGCAGGGCAUCUCUGAGAGAAAUGCC [U20C G36C]", "Category label": "true (1)"}
{"Polymer sequence": "UACGUAGGUGGUUUUCCCCUGAUAGUGCUGAGGGGGCCUGGAAGUUUAGACUGGGCAGAGCUCAACACAGCGUGGCAAAGUGGCUGUGGCUAGACUGCCUCUCUGGAUUCCUCGUCACUCAGCAGGGCAUCUCUGAGAGAAAUGCC [A30G G48A]", "Category label": "false (0)"}
{"Polymer sequence": "UACUCAGGUGGUUUUCCCCUGAUAGUGCUAAGGGGGCCUGGAAGUUUGGACUGGGCAGAGCUCAACACAGCGUGGCAAAGUGGCUGUGGCUAGACUGCCUCUCUGGAUUCCUCGUCACUCAGCAGGGCAUCUCUGAGAGAAAUGCC [G4U U5C]", "Category label": "false (0)"}
{"Polymer sequence": "UACGUAGGUGGUUUUCCCCUGAUUGUGCUAAGGGGGCCUGGAAGUUUGGACUGGGCAGAGCUCAACACAGCGUGGCAAAGUGGCUGUGGCUAGACUGCCUCUCUGGAUUCCUCGUCACUCAGCAGGGCAUCUCUGAGAGAACUGCC [A24U A142C]", "Category label": "true (1)"}
{"Polymer sequence": "UACGUAGGUGGUUUUCCCCUGAUAGUGCUAAGGGGGCCUGGAAGUUUGGACUGGGCAGAGCUCAACACAGCGUGGCAAAGUGGCUGUCGCUAGACUGCCUCUCUGGAUUCCUCGUCACUCAGCAGGGCAUCCCUGAGAGAAAUGCC [G88C U132C]", "Category label": "false (0)"}
{"Polymer sequence": "UACGUAGGUGGUUUUCCCCUGAUAGCGCUAAGGGGGCCUGGAAGUUUGGGCUGGGCAGAGCUCAACACAGCGUGGCAAAGUGGCUGUGGCUAGACUGCCUCUCUGGAUUCCUCGUCACUCAGCAGGGCAUCUCUGAGAGAAAUGCC [U26C A50G]", "Category label": "true (1)"}
{"Polymer sequence": "UACGUAGGUGGUUUUCCCCUGAUAGUGCUAAGGGGGCCUGGAAGUUUGGACUUGGCAGAGCUCAACACAGCGUGGCAAAGCGGCUGUGGCUAGACUGCCUCUCUGGAUUCCUCGUCACUCAGCAGGGCAUCUCUGAGAGAAAUGCC [G53U U81C]", "Category label": "true (1)"}
{"Polymer sequence": "UACGUAGGUGGUUUUCCCCUGAUAGUGCUAAGGGGGCCUGGAAGGUUGGACUGGGCAGAGCUCAACACAGCGUGGCAAAGUGGCUGUGGCUAGACUGCCUCACUGGAUUCCUCGUCACUCAGCAGGGCAUCUCUGAGAGAAAUGCC [U45G U102A]", "Category label": "true (1)"}
